assay: PSAC antagonists in infected red cells, primary screen, cell-based, P. falciparum Indochina, OD700, 18 h (AID 1157); details: P. falciparum Indochina infected erythrocytes, osmotic lysis OD700, 18 h; higher = more signal, called active from +8 up or from −8 down
// bucketize z-score: bottom = under 0.07, middle = from 0.07 up to 0.4, top = 0.4 and over

compound: COC(=O)[C@H](C)NC(=O)CC=C[C@@H](C)[C@@H]1C=C[C@H](O)[C@@H](CO)O1
discrete label: middle
--
compound: COc1ccc(OC[C@@H](CO)OC)cc1
discrete label: bottom

Band for CC(C)=NOC(C)CN1CCCc2nc(C)c(C)cc21 (stereo not drawn) ?
top

Band for O=C1[C@H]2[C@H]3[C@H](O)[C@H](O)CC(=NOC[C@@H](O)COCc4ccco4)[C@@H]3CC[C@H]2C(=O)N1Cc1ccccc1 ?
top

Band for C#CCCCON=C1C[C@@H](O)[C@@H](O)[C@@H]2[C@@H]3C(=O)N(C[C@@H]4CCCO4)C(=O)[C@@H]3CC[C@@H]12 ?
middle

Band for CCN1C(=O)[C@H]2[C@H]3[C@H](O)[C@H](O)CC(=NNC(=O)OCc4ccccc4)[C@@H]3CC[C@H]2C1=O ?
bottom

Band for COc1cccc([C@H]2Oc3ccc(OC)cc3C(=NO[C@@H](C)c3cc(-c4c(C)cc(C)cc4C)no3)[C@@H]2O)c1 ?
top
